- assay-remarks: E. coli acrAB mutant growth effects, primary screen, E. coli filamentation inducers, strain DRC39, OD650, 24 h (AID 1178);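 also: growth measured as culture turbidity by optical density at 650 nm; test concentration not given here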
- particulars: higher = more signal, called active from +8 up or from −8 down
Output 1 for z-score not less than 0.8; output -1 otherwise.

Here's what some known entries look like.
>>> df
                                   compound  label_value
0  C=C(COC)C(=O)CC[C@@H](OC(=O)c1cccnc1)c1cccc(OCCO)c1            1
1  O=C1C2C=CC(C(O)c3ccc([N+](=O)[O-])cc3)N(Nc3ccccc3)C2C(=O)N1c1ccccc1 (stereo not drawn)           -1
2  CC(C)CNC(=O)[C@@]1(C)c2ccccc2C(=O)N(Cc2cc(F)cc(C(F)(F)F)c2)[C@H]1c1ccc(CO)cc1           -1

For this compound, is measured z-score 0.8 or higher? "C/C=C/CN(C(=O)C#Cc1ccccc1)[C@H](CO[Si](C)(C)C(C)(C)C)c1ccccc1"
1

For this compound, is measured z-score 0.8 or higher? "C=C(COC)C(=O)CC[C@@H](OC(C)=O)c1ccc(OCCO)cc1"
-1

For this compound, is measured z-score 0.8 or higher? "COC(=O)[C@]1(CO)N=C(c2ccc(OCCCO)cc2)O[C@@H]1c1ccccc1CN=[N+]=[N-]"
-1

For this compound, is measured z-score 0.8 or higher? "COC(=O)[C@@]1(Cc2ccccc2)[C@@H]2[C@@H](CC(=O)[C@H]2CC(=O)C(=O)N(C)C)CN1C(=O)c1ccccc1"
-1
